studySystem: katalytischen Domäne der humanen Kollagenase -3(MMP-13) (Homo sapiens, UniProt P45452)
Construct: Die Enzymlösung enthält 1,67 µg/mL der Enzymdomäne; purchased INVITEK, Berlin 30100 803
testDetails: Enzymatic activity of the catalytic domain of human collagenase-3 (MMP-13), fluorogenic substrate
Assay type: biochemical
setupConditions: comparative example, same method as Table 4; read-out: IC50-Wertes für die Inhibition der humanen Kollagenase -3 (MMP-13)
reportedMetric: pIC50
Remember, pIC50 is on a log scale: it is -log10 of the molar concentration.

INPUT: Item CCNC(=O)c1cc(C(=O)NCC)ncn1 [Pyrimidin-4,6-dicarbonsäurediethylamid] with katalytischen Domäne der humanen Kollagenase -3(MMP-13) (Homo sapiens, UniProt P45452) - pIC50?
OUTPUT: 4.05

These measurements were taken from patent EP1455790B1.
